Biological target: T1, cynomolgus uPAR (recombinant) (cynomolgus monkey, UniProt Q9GK78 23-303, limits assumed)
T1 construct: also called cyno uPAR; AF647-cyno uPAR
T1 sequence (looked up): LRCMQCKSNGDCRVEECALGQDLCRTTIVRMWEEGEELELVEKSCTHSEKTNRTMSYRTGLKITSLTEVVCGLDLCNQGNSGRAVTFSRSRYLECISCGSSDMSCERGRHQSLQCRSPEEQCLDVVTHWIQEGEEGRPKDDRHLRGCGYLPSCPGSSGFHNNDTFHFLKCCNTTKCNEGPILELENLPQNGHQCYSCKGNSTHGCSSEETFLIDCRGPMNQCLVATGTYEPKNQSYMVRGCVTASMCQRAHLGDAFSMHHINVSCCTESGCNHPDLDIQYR
Assay: BLI (Octet HTX)
assayReadout: Kd (nM)
Enter your answer as a number in nM; do not include the unit.

Lab note: 11857 HC1 + LC2 (humanized) (antibody, V domains shown, detected with anti-human Fc antibody) VH: EVQLVQSGAEVKKPGATVKISCKVSGYTFTDYYMNWVQQAPGKSLEWMGNINPNNGGTDYNQKFQGRVTITADKSTSTAYMELSSLRSEDTAVYYCARSYGSRFPYWGLGTLVTVSS VL: DIQMTQSPSSLSASVGDRVTITCRASQDITNYLSWYQQKPGGTVKLLIFYTAVLQSGFPSRFSGSGSGADFTLTISSLQPEDVATYYCQQGHTLPWTFGGGTKVEIK gave Kd of 32.4

Lab note: 11857 HC2 + LC1 (humanized) (antibody, V domains shown, detected with anti-human Fc antibody) VH: EVQLVQSGAEVKKPGASVKVSCKASGYTFTDYYMNWVRQAPGKSLEWMGNINPNNGGTDYSQKFQGRVTITVDTSASTAYMELSSLRSEDTAVYYCARSYGSRFPYWGLGTLVTVSS VL: DIQMTQSPSSLSASVGDRVTITCRASQDITNYLSWYQQKPGGTVKLLLYYTAVLQSGFPSRFSGSGSGADYTLTISSLQPEDFATYYCQQGHTLPWTFGGGTKVEIK gave Kd of 307

Lab note: 11857 HC2 + LC2 (humanized) (antibody, V domains shown, detected with anti-human Fc antibody) VH: EVQLVQSGAEVKKPGASVKVSCKASGYTFTDYYMNWVRQAPGKSLEWMGNINPNNGGTDYSQKFQGRVTITVDTSASTAYMELSSLRSEDTAVYYCARSYGSRFPYWGLGTLVTVSS VL: DIQMTQSPSSLSASVGDRVTITCRASQDITNYLSWYQQKPGGTVKLLIFYTAVLQSGFPSRFSGSGSGADFTLTISSLQPEDVATYYCQQGHTLPWTFGGGTKVEIK gave Kd of 59.5
